molecular target: T1, human CD3 (human, UniProt P07766 23-207; P04234 22-171; P09693 23-182); experiment: FACS on Jurkat cells
T1 construct: whole, on cells; also called hCD3; CD3 on Jurkat cells
T1 sequence (P07766 23-207, chain 1 of 3): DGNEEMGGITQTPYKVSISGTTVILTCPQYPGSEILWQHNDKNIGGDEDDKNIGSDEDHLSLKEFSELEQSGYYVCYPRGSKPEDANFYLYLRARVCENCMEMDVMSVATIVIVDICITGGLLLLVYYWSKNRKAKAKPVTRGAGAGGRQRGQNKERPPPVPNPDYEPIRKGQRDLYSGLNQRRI
T1 sequence (P04234 22-171, chain 2 of 3): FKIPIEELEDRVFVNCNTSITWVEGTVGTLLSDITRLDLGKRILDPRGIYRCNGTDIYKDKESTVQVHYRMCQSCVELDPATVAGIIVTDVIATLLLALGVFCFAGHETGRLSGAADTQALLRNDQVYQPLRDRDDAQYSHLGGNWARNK
T1 sequence (P09693 23-182, chain 3 of 3): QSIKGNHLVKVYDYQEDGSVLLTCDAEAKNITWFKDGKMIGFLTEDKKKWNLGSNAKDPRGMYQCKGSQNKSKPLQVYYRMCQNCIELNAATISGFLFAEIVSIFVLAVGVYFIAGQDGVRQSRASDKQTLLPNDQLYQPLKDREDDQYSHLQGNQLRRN
property label: pEC50
Give bare numbers, as −log10 of the molar value.

Ask: For the binder shown here, hu40E9-L2H5 (antibody, V domains shown) VH: EVQLVQSGAEVKKPGSSVKVSCKASGYTFSSYVIHWVRQAPGQGLEWMGYINPGSGVIKYNEKFKGRVTLTSDKSTSTAYMELSSLRSEDTAVYYCARDSYYSYDGFAYWGQGTLVTVSS VL: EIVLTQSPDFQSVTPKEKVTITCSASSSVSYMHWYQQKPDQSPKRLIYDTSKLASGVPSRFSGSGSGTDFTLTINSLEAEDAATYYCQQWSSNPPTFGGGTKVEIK , give the reported pEC50.
Reply: 9.44
